Method: APR_HepG2_MitoticArrest_24hr: Apredica 24-hour HepG2 Assay for Mitotic Arrest (AID 2282910)
Measurement parameters: high-content imaging, actives raise or lower the signal
Protocol: APR_HepG2_24hr is a cell-based, multiplexed-readout assay that uses HepG2, a human liver cell line, with measurements taken at 24 hours after chemical dosing in a 384-well plate.APR_HepG2_MitoticArrest_24hr is one of 10 assay component(s) measured or calculated from the APR_HepG2_24hr assay. […] This assay endpoint, APR_HepG2_MitoticArrest_24hr, was analyzed with bidirectional fitting relative to DMSO as the negative control and baseline of activity. […]
Calls of active or inactive are those of the source. How the source made its calls: active means hit-call score of the fitted dose curve at least 0.9, where 1 is the maximum; inactive means score below 0.9.
Returns: one label drawn from y for active, n for inactive

A selection of reference data follows.
>>> df
                                   molecule  cat
0  CCC(=O)C(CC(C)N(C)C)(c1ccccc1)c1ccccc1 (stereo unspecified)    n
1                   CC(=O)[O][Hg][c]1ccccc1    y
2                      CC(C)(C)c1cc(O)ccc1O    n

Okay, next one:
Req: Each molecule tested received a call. Report the one for C[C@]12CCC(=O)C[C@@H]1CC[C@@H]1[C@@H]2CC[C@]2(C)[C@@H](O)CC[C@@H]12 .
Resp: n
